Target: human muscarinic M4 receptor (Homo sapiens, UniProt P08173)
Construct: expressed in transfected cells
Sequence (P08173 1-479): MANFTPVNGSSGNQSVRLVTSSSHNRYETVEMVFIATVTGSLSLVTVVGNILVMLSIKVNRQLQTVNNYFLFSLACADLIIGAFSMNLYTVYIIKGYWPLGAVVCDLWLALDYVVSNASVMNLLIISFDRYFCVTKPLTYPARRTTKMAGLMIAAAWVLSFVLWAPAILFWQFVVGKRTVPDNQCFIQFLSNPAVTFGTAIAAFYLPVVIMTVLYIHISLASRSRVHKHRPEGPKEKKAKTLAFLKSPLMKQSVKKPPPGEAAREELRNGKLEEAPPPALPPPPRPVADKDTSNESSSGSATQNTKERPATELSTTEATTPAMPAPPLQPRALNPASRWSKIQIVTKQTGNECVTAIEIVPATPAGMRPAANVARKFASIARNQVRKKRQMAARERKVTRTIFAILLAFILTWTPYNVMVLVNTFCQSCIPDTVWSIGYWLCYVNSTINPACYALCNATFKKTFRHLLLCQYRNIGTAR
Assay: Alphascreen Surefire phospho-ERK1/2 functional assay, M4
Assay type: cell-based
Conditions: CHO cells stably expressing human M4; phospho-ERK1/2; read-out: pEC50 M4 (converted)
observed-property: EC50

# count of solved cases: 5
[[record]]
compound = "CCOC(=O)NCC1CCN(C2CCC(C#N)(c3ccccc3)CC2)CC1 (single isomer, unassigned) [6-2-Isomer 2]"
value_reported = "0.0537 µM"

[[record]]
compound = "CCOC(=O)N[C@H]1CCN(C2CCC3(CC2)C(=O)Nc2cc(OC)ccc23)C1 (single isomer, unassigned) [2-9 isomer 1]"
value_reported = "> 20 µM"

[[record]]
compound = "CCOC(=O)N(C)[C@@H]1CCN(C2CCC(C#N)(c3ccccc3)CC2)C1 (single isomer, unassigned) [1-21 Isomer 2]"
value_reported = "> 20 µM"

[[record]]
compound = "CCOC(=O)N[C@H]1CCN(C2CCC(C#N)(c3ccc(F)cc3)CC2)C1 (single isomer, unassigned) [1-4 Isomer 2]"
value_reported = "> 20 µM"

[[record]]
compound = "CCOC(=O)N[C@@H]1CCN(C2CCC3(CC2)C(=O)Nc2ccccc23)C1 (single isomer, unassigned) [2-2 isomer 1]"
value_reported = "0.871 µM"


--- query ---
Answer with the recorded EC50 of CCOC(=O)N[C@H]1CCN(C2CCC(C#N)(c3cccc(OC)c3)CC2)C1 (single isomer, unassigned) [1-11 Isomer 2] only.
> 20 µM

* * *

molecular target: human muscarinic M1 receptor (Homo sapiens, UniProt P11229); assay: Alphascreen Surefire phospho-ERK1/2 functional assay, M1; format: cell-based; conditions: CHO cells stably expressing human M1; phospho-ERK1/2; read-out: pEC50 M1 (converted)
Sequence (P11229 whole entry): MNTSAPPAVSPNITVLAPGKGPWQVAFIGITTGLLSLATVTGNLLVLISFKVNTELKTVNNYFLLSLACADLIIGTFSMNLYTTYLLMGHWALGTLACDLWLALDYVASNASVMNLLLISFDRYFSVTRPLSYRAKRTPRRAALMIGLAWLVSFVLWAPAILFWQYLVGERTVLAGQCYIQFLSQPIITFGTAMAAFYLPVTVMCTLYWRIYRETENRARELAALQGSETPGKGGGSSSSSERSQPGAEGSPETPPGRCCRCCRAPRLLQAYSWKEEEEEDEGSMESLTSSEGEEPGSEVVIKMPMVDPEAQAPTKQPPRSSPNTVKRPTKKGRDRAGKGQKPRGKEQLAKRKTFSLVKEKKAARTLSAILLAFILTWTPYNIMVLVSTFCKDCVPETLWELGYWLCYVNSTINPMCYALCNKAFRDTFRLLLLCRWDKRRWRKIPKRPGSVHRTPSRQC
Readings of EC50 for the listed compounds
The answer is to be given in nM; state only the numeric part.

# count of solved cases: 5
[[record]]
compound = "CCOC(=O)N(C)[C@@H]1CCN(C2CCC3(CC2)C(=O)Nc2cccnc23)C1 (single isomer, unassigned) [2-21 isomer 2]"
observed_property = "EC50"
value_reported = 468

[[record]]
compound = "CCOC(=O)N[C@H]1CCN(C2CCC3(CC2)C(=O)Nc2ccc(C)cc23)C1 (single isomer, unassigned) [2-5 isomer 1]"
observed_property = "EC50"
value_reported = 7.76

[[record]]
compound = "Cc1ccc(C2(C#N)CCC(N[C@@H]3CC[C@H](c4nc(C(F)(F)F)no4)C3)CC2)nc1 (single isomer, unassigned) [28-2 Isomer 2]"
observed_property = "EC50"
value_reported = 3470

[[record]]
compound = "CCOC(=O)N[C@H]1CCN(C2CCC(C#N)(c3ccccc3)CC2)C1 (single isomer, unassigned) [1-1 Isomer 2]"
observed_property = "EC50"
value_reported = 51.3

[[record]]
compound = "N#CC1(c2ccc(F)cn2)CCC(N[C@@H]2CC[C@H](c3nc(C(F)(F)F)no3)C2)CC1 (single isomer, unassigned) [28-1 Isomer 2]"
observed_property = "EC50"
value_reported = 977


--- query ---
Answer with the recorded EC50 of CCOC(=O)N1CCCN(C2CCC(C#N)(c3ccncc3)CC2)CC1 (mixture of isomers) [3-12 mixture of isomers] only.
155

Reference source for all entries: patent US10759751B2
